target: CDK6/cyclin D3 (Homo sapiens) (UniProt P30281+Q00534); assay: Inhibition of recombinant full-length human CDK6/cyclinD3 at 500 nM using histone H1 as substrate measured after 40 mins in presence of [gamma33P]ATP by scintillation counting method relative to control; format: protein-complex assay
PROPERTY LABEL: inhibition (%)

> print(dat)
                                   molecule  result
1  CN(C)C(=O)c1cc2cnc(Nc3cccc(NC(=O)CCCCCCCN=C=S)c3)nc2n1C1CCCC1      23
2  CN(C)C(=O)c1cc2cnc(Nc3ccc(NC(=O)CCCCCCN=C=S)cc3)nc2n1C1CCCC1      65
3  CN(C)C(=O)c1cc2cnc(Nc3ccc(C(=O)NCCCCN=C=S)cc3F)nc2n1C1CCCC1      38

====

Recorded inhibition at 10 µM by entry
system: NCI-H1299; assay: Antiproliferative activity against human H1299 cells assessed as inhibition of cell viability at 10 uM after 72 hrs by CCK-8 assay relative to control; type: functional; conditions: NCI-H1299, 72 h
PROPERTY LABEL: inhibition at 10 µM (%)

> print(dat)
                                   molecule        tgt       property.label  result
1  CN(C)C(=O)c1cc2cnc(Nc3ccc(C(=O)NCCCCCN=C=S)cc3O)nc2n1C1CCCC1  NCI-H1299  inhibition at 10 µM    80.7
2  CN(C)C(=O)c1cc2cnc(Nc3ccc(C(=O)NCCCN=C=S)cc3F)nc2n1C1CCCC1  NCI-H1299  inhibition at 10 µM    78.5
3  CN(C)C(=O)c1cc2cnc(Nc3ccc(NC(=O)CCCN=C=S)cc3)nc2n1C1CCCC1  NCI-H1299  inhibition at 10 µM    78.8

====

target: CDK6/cyclin D3 (Homo sapiens) (UniProt P30281+Q00534); assay: Inhibition of recombinant full-length human CDK6/cyclinD3 at 1 uM using histone H1 as substrate measured after 40 mins in presence of [gamma33P]ATP by scintillation counting method relative to control; type: protein-complex assay
Recorded inhibition by entry
PROPERTY LABEL: inhibition

> print(dat)
                                   molecule  result
1  CN(C)C(=O)c1cc2cnc(Nc3ccc(NC(=O)CCCCCCCN=C=S)cc3F)nc2n1C1CCCC1     49%
2  CN(C)C(=O)c1cc2cnc(Nc3ccc(S(=O)(=O)NCCCCCCCN=C=S)cc3)nc2n1C1CCCC1     77%
3  CN(C)C(=O)c1cc2cnc(Nc3ccc(S(=O)(=O)NCCCN=C=S)cc3)nc2n1C1CCCC1     89%
4  CN(C)C(=O)c1cc2cnc(Nc3ccc(C(=O)NCCCCN=C=S)cc3O)nc2n1C1CCCC1     61%
5  CN(C)C(=O)c1cc2cnc(Nc3ccc(S(=O)(=O)NCCCCCN=C=S)cc3)nc2n1C1CCCC1     89%
